Biological target: RET (658-1114) (Homo sapiens)
Construct: 658-1114; expressed in transfected cells; host or cells: 293T.144 (293T cells, generated in-house)
Test: HiBiT-Degradation, RET wild-type degradation assay (Nano-Glo HiBiT Lytic), 293T.144 cells
Format: cell-based
Conditions: 6.0 hours, half-maximal degradation concentration, read-out: 293T.144 RET (658-1114) 6.0 hours (DC50)
Consider the following compounds and their measured DC50 readings.

Reference set, count: 3
CO[C@@H](C(=O)N1CCN(c2ccc(-c3nc(-c4cnn([C@H]5CC[C@@H](N6CCN(c7c(F)cc(NC8CCC(=O)NC8=O)cc7F)CC6)CC5)c4)cn4ncc(C#N)c34)cn2)CC1)c1ccccc1 (single isomer, unassigned) :: < 50 nM
COc1ccc(CN2C3CC2CN(c2ccc(-c4nc(-c5cnn([C@H]6CC[C@H](N7CCN(c8cc(OC)c(NC9CCC(=O)NC9=O)cc8F)CC7)CC6)c5)cn5ncc(C#N)c45)cn2)C3)cn1 (relative stereo) :: < 50 nM
CCC1(C(=O)NC2CCC2)CCN(c2ccc(-c3nc(-c4cnn([C@H]5CC[C@H](N6CCC(c7ccc(N[C@@H]8CCC(=O)NC8=O)cc7)CC6)CC5)c4)cn4ncc(C#N)c34)cn2)CC1 (single isomer, unassigned) :: < 50 nM

I'd like to know its DC50. The compound in question is N#Cc1cnn2cc(-c3cnn(C4CCN(C(=O)CC5(O)CCN(c6ccc(NC7CCC(=O)NC7=O)cc6F)CC5)CC4)c3)nc(-c3ccc(N4CCC(Oc5ccccn5)CC4)nc3)c12 (stereo not drawn) < 50 nM

Give the measured DC50 of CCC1(c2ccccn2)CCN(c2ccc(-c3nc(-c4cnn(C5CCN(C(=O)CN6CCC(c7ccc(NC8CCC(=O)NC8=O)cc7F)CC6)CC5)c4)cn4ncc(C#N)c34)cn2)CC1 (stereo not drawn) . < 50 nM

Consider the compound shown here: CCC1(C(=O)NC2CCC2)CCN(c2ccc(-c3nc(-c4cnn(C5CCN([C@H]6CCN(c7ccc(N[C@H]8CCC(=O)NC8=O)cc7F)CC6(F)F)CC5)c4)cn4ncc(C#N)c34)cn2)CC1 (single isomer, unassigned) What is its recorded DC50? < 50 nM

Which DC50 value belongs to `CCC1(C(=O)NC2CCC2)CCN(c2ccc(-c3nc(-c4cnn([C@H]5C[C@H](CN6CCN(c7ccc(N[C@H]8CCC(=O)NC8=O)cc7F)CC6)C5)c4)cn4ncc(C#N)c34)cn2)CC1` ? < 50 nM

// query DC50 value for entry CCC1(C(=O)NC(C)C)CCN(c2ncc(-c3nc(-c4cnn(C5CCN(C(=O)CC6(O)CCN(c7ccc(NC8CCC(=O)NC8=O)cc7Cl)CC6)CC5)c4)cn4ncc(C#N)c34)cc2F)CC1 (stereo not drawn) < 50 nM

// query DC50 value for entry CC(C)Oc1ccc(CN2[C@@H]3COC[C@H]2CN(c2ccc(-c4nc(-c5cnn([C@H]6CC[C@H](N7CCN(c8c(F)cc(NC9CCC(=O)NC9=O)cc8F)CC7)CC6)c5)cn5ncc(C#N)c45)cn2)C3)cn1 (mixture of isomers) < 50 nM

* * *

Target: RET(KD: 658-1114 G810R) (Homo sapiens, UniProt P07949, G810R)
Construct: 658-1114; expressed in transfected cells; host or cells: 293T.165 (293T cells, generated in-house)
Sequence (P07949 658-1114 G810R): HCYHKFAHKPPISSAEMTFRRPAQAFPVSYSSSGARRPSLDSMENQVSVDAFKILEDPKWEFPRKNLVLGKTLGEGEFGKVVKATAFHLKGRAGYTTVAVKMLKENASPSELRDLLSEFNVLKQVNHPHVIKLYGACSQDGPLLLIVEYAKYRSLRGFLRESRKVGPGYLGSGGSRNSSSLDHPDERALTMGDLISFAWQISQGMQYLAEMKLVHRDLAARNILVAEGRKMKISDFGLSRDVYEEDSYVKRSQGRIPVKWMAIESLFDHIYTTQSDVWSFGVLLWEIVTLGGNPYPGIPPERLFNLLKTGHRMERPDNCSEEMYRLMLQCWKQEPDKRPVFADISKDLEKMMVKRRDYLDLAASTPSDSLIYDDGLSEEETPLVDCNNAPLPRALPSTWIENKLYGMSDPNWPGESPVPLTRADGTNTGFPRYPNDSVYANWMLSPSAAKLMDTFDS
Assay: HiBiT-Degradation, RET G810R degradation assay (Nano-Glo HiBiT Lytic), 293T.165 cells
Assay type: cell-based
Details: 6.0 hours, half-maximal degradation concentration, read-out: 293T.165 RET(KD: 658-1114 G810R) 6.0 hours (DC50)
MEASURED_ATTRIBUTE: DC50

Study these solved cases before continuing.
CCC1(C(=O)NC(C)C)CCN(c2ccc(-c3nc(-c4cnn(C5CCN(C(=O)CC6(O)CCN(c7ccc(NC8CCC(=O)NC8=O)cc7Cl)CC6)CC5)c4)cn4ncc(C#N)c34)cn2)CC1 (stereo not drawn) [Compound 14] :: < 50 nM
CCC1(C(=O)Nc2ccccc2)CCN(c2ccc(-c3nc(-c4cnn(C5CCN(C(=O)CC6(O)CCN(c7ccc(NC8CCC(=O)NC8=O)cc7F)CC6)CC5)c4)cn4ncc(C#N)c34)cn2)CC1 (stereo not drawn) [Compound 99] :: < 50 nM
COc1ccc(CC2(OC)CCN(c3ccc(-c4nc(-c5cnn([C@H]6CC[C@@H](N7CCN(c8ccc(NC9CCC(=O)NC9=O)cc8F)CC7)CC6)c5)cn5ncc(C#N)c45)cn3)CC2)cn1 (single isomer, unassigned) [Compound 147] :: < 100 nM
CCC1(c2ncccn2)CCN(c2ccc(-c3nc(-c4cnn([C@H]5CC[C@H](N6CCC(c7ccc(N[C@@H]8CCC(=O)NC8=O)cc7F)CC6)CC5)c4)cn4ncc(C#N)c34)cn2)CC1 (single isomer, unassigned) [Compound 140] :: < 100 nM
CC(C)(C)CC(=O)N1[C@@H]2COC[C@H]1CN(c1ccc(-c3nc(-c4cnn([C@H]5CC[C@@H](N6CCN(c7ccc(NC8CCC(=O)NC8=O)cc7F)CC6)CC5)c4)cn4ncc(C#N)c34)cn1)C2 (single isomer, unassigned) [Compound 158] :: < 50 nM
N#Cc1cnn2cc(-c3cnn([C@H]4CC[C@H](N5CCC(c6ccc(N[C@H]7CCC(=O)NC7=O)cc6F)CC5)CC4)c3)nc(-c3ccc(N4CCC5(CC4)OCc4cccnc45)nc3)c12 (single isomer, unassigned) [Compound 179] :: < 50 nM
CCC1(C(=O)NC(C)C)CCN(c2ccc(-c3nc(-c4cnn(C5CCN(C(=O)CN6CCC(c7ccc(NC8CCC(=O)NC8=O)cc7)CC6)CC5)c4)cn4ncc(C#N)c34)cn2)CC1 (stereo not drawn) [Compound 31] :: < 50 nM
CCC1(C(=O)NC2CCOCC2)CCN(c2ccc(-c3nc(-c4cnn([C@H]5CC[C@H](N6CCC(c7ccc(N[C@H]8CCC(=O)NC8=O)cc7F)CC6)CC5)c4)cn4ncc(C#N)c34)cn2)CC1 (stereo in doubt) [Compound 144] :: < 50 nM

From here, focus on the item given below.
For RET(KD: 658-1114 G810R) (Homo sapiens, UniProt P07949, G810R), provide DC50 of CCC1(NC(=O)C(C)C)CCN(c2ccc(-c3nc(-c4cnn([C@H]5CC[C@@H](N6CCN(c7ccc8c(N9CCC(=O)NC9=O)nn(C)c8c7F)CC6)CC5)c4)cn4ncc(C#N)c34)cn2)CC1 (single isomer, unassigned) [Compound 125] please. < 50 nM

src = patent US12661410B2
